Measured values drawn from PubChem BioAssay (NCI) for this set.

Assay: NCI Yeast Anticancer Drug Screen. Data for the rad50 strain (AID 155);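 further: 0% = growth of vehicle-only cultures of the same strain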
Conditions: S. cerevisiae rad50 strain growth inhibition; at 50.0 µM
Compounds without any hit were thinned out: in the full panel of roughly 79,000, 15% have a hit. Active and inactive are the calls of the source. No stated cut-off is given here; in the data, active means growth inhibition above about 70%; inactive means the rest.
Outcome (select one): active, inactive

Worked cases, answers included:
[[record]]
compound = "O=[N+]([O-])c1cccc([I+]c2cccc([N+](=O)[O-])c2)c1"
discrete_label = "active"

[[record]]
compound = "N#Cc1ccc(NN=NCCOCCCl)cc1"
discrete_label = "inactive"

[[record]]
compound = "Cc1ccc(NC(=S)NCC2CCCO2)cc1C (centres undefined)"
discrete_label = "inactive"


Request: Dear colleague, could you share the recorded outcome for CN(Cc1ccccc1)C(OCc1ccccc1)c1ccccc1 (centres undefined) when you have a moment?
Result: inactive

Request: Field: outcome | Entry: `N#CC(=Nc1ccccc1N(C(=O)c1ccccc1)C(=O)c1ccccc1)c1ccccc1`
Result: inactive

Request: Assay result, entry `O=[N+]([O-])c1cc(Cl)cc2c1nc(NCCCO)c1ccccc12` — outcome?
Result: inactive

Request: Status in this test for `COC(=O)NC(Nc1ccc(C)cc1)(C(F)(F)F)C(F)(F)F` ?
Result: inactive

Request: Just curious, what result did `Brc1ccc(-c2cc(-c3ccc4c(c3)OCO4)c(-c3cccs3)n2Cc2ccccc2)cc1` get here?
Result: inactive

Request: Test call, this compound: `CCNC(=O)OCc1c(COC(=O)NCC)c(-c2ccc(Cl)c(Cl)c2)n2c1CCC2`
Result: inactive

====

Provide the recorded growth inhibition for the entries that follow.
Assay: NCI Yeast Anticancer Drug Screen. Data for the rad50 strain (AID 155);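 further: 0% = growth of vehicle-only cultures of the same strain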
Settings: S. cerevisiae rad50 strain growth inhibition; at 50.0 µM; hits give high values
Compounds without any hit were thinned out: in the full panel of roughly 79,000, 15% have a hit.
Numbers only, in %.

[[record]]
smiles_notation = "Cc1ccc2nc(Nc3nc(C)cc(C)n3)[nH]c2c1"
test_value = -36.9

[[record]]
smiles_notation = "Nc1nnc2nc(CC(=O)c3ccccn3)/c(=C/C(=O)c3ccccn3)n12"
test_value = -7.3

[[record]]
smiles_notation = "CCCCS(=O)(=O)CCCC"
test_value = 18.5

[[record]]
smiles_notation = "CN1C(=O)NC(C)(C)C1=O"
test_value = -1.5


Quick one: give me growth inhibition for each item below, same order please.
1. O=C1NC(=O)C2(CCN(Cc3ccccc3)CC2)N1c1ccccc1
2. CC(C)OC(=O)C1=C(C(=O)OC(C)C)CCCC1
3. CCOC(=O)/C(F)=C/c1cccc(C#N)c1
4. CNc1ccccc1C(=O)N/N=C/C1CCCCC1

Result:
[8.95, 4.8, 41.6, 0.6]

// for each molecule below, give its growth inhibition
1. COC(=O)c1c(C)cc(OC(=O)c2c(C)cc(OC)c(C)c2OC)c(C)c1O
2. C[C@@H](Oc1ccc(Oc2cnc3ccc(Cl)cc3n2)cc1)C(=O)O

Result:
[14.6, 15.8]

Need growth inhibition for each of these molecules.
1. CC(C)(C)C(=O)Oc1ccc(/C=C/C(=O)c2ccc(OC(=O)C(C)(C)C)cc2)cc1
2. CCOc1ccc(NC(=O)Nc2cccc(Cl)c2C)cc1

Result:
1. -5.45
2. 0.45

====

Assay: NCI Yeast Anticancer Drug Screen. Data for the bub3 strain (AID 167)
Conditions: S. cerevisiae bub3 mutant strain, at 50.0 µM
Procedure: Growth inhibition of yeast strains with defined genetic alterations is measured as a screen for potential anti-cancer activity. Selected strains with alterations in DNA damage repair or cell cycle control were exposed to compounds and growth inhibition was measured relative to vehicle treated controls. The strain used in this assay is bub3
About 79,000 compounds went through this panel and 15% of them were active in at least one assay; those are over-represented in the sample as a whole. Active and inactive are the calls of the source. No stated cut-off is given here; in the data, active means growth inhibition above about 70%; inactive means the rest.
Entry note: the call must match one of active, inactive

// known answers, use as guide
[[record]]
molecule = "O=C1[C@@H](c2ccc(Cl)cc2)[C@H]2CC=C[C@H]2N1O"
discrete_label = "inactive"

[[record]]
molecule = "Nc1ccc2ccc(S(=O)(=O)O)cc2c1"
discrete_label = "inactive"


Request: How did this test come out for O=C(OC1(c2ccccc2)OC(=O)c2ccccc21)c1ccccc1C(=O)c1ccccc1 (configuration not stated) ?
Result: inactive

Request: Which outcome was entered for the molecule `Cc1ncc(CSCC(=O)O)c(N)n1` in this test?
Result: inactive

Request: // return assay outcome for `CSC1=N/C(=C\c2ccc(C)cc2)C(=O)N1`
Result: inactive
